Every entry's value here was drawn from ChEMBL document CHEMBL3507680.

Experiment: Human HepG2 cell viability assay in 384 well format
Assay type: toxicity, cell-based
Design: dose 125 nL, time 70.5 hour; concentration not given beside the values
Conditions: HepG2 cells, read-out: Inhibition
Measured cytotoxicity at 70.5 h, listed per entry.
Give your result in % as a bare value.

Example compounds with recorded cytotoxicity at 70.5 h:
Compound: Cc1nn(C)c2cnn(Cc3ccc(C(=O)N4CCN(C)CC4)o3)c12
Unit spec: %
Result number: 28.4
//
Compound: COCC(=O)NCc1cccc(Br)c1
Unit spec: %
Result number: 19.4
//
Compound: COc1cc(C)nc(N2CCN(C(=O)CN(C)C3CC3)CC2)n1
Unit spec: %
Result number: -4.51
//
Compound: NC(=O)CC1CCN(S(=O)(=O)c2cnn(-c3ccccc3)c2)CC1
Unit spec: %
Result number: -5.73
//
Compound: COc1ccc(S(=O)(=O)NC(=O)c2cscn2)cc1C
Unit spec: %
Result number: -13.6

Req: Entry O=C(CC1CC1)N[C@@H]1CN(Cc2ccoc2)C[C@@H]2CCCO[C@@H]21 : reported cytotoxicity at 70.5 h = ?
Resp: 14

Req: Entry CN(Cc1nncn1C)c1nccc(C2CCCC2)n1 : reported cytotoxicity at 70.5 h = ?
Resp: 6.4

Req: Entry CC(C)(C(=O)NCc1ccccc1F)n1cc(Br)cn1 : reported cytotoxicity at 70.5 h = ?
Resp: -6.29

---

Test: Human HepG2 cell viability assay in 384 well format
Type: toxicity, cell-based
Design: dose 125 nL, time 70.5 hour; concentration not given beside the values
Conditions: HepG2 cells, read-out: Inhibition
Measured cytotoxicity at 70.5 h, listed per entry.
Give your result in % as a bare value.

Example compounds with recorded cytotoxicity at 70.5 h:
Compound: CS(=O)(=O)Nc1ccc(-n2c(CCCO)nc3ccccc32)cn1
Result number: 0.667

Compound: CNC(=O)CC1CCN(C(=O)Nc2ccc(-c3cc[nH]n3)cc2)CC1
Result number: -4.66

Compound: CNC(=O)CN1CCN(C(=O)c2ccn(C)c(=O)c2)CC1
Result number: 31.2

Compound: COCCCNC(=O)CN1CCCC1c1c(C)nn(C)c1Cl (stereo not drawn)
Result number: 27.1

Compound: COc1ccccc1CN(CCCn1ccnc1)CC1CCOC1 (stereo not drawn)
Result number: -4.43

Req: Entry CCn1ncc2c1CCCC2NCc1cccc2c1OCCO2 (stereo not drawn) : reported cytotoxicity at 70.5 h = ?
Resp: -13.8

Req: Entry Cc1ccc(C(=O)N2CCC3(CCN(c4ccsc4)C3=O)C2)cn1 (stereo not drawn) : reported cytotoxicity at 70.5 h = ?
Resp: 6.79

Req: Entry CN(CCc1cn[nH]c1)Cc1nc(Cc2cccc(F)c2)no1 : reported cytotoxicity at 70.5 h = ?
Resp: 19

Req: Entry CC(C)c1nn(C)c(N(C)C)c1CNC1CCCCNC1=O (stereo not drawn) : reported cytotoxicity at 70.5 h = ?
Resp: -4.04

Req: Entry CNc1cc2c(nn1)CCN(C(=O)c1ccc(-n3nccc3C)cc1)C2 : reported cytotoxicity at 70.5 h = ?
Resp: -5.27

Req: Entry CNC(=O)NC(=O)C(C)N1CCN(C2CCCC2)CC1 (stereo not drawn) : reported cytotoxicity at 70.5 h = ?
Resp: -4.93

Req: Entry CCN(Cc1ccc(Cl)s1)S(=O)(=O)CC : reported cytotoxicity at 70.5 h = ?
Resp: 0.4

Req: Entry O=C([C@H]1CN(Cc2nccs2)C[C@H]2OCC[C@@H]12)N1CCCC1 : reported cytotoxicity at 70.5 h = ?
Resp: 10.2

---

Measured cytotoxicity at 70.5 h, listed per entry.
Assay: Human HepG2 cell viability assay in 384 well format
Type: toxicity, cell-based
Set-up: dose 125 nL, time 70.5 hour; concentration not given beside the values
Settings: HepG2 cells, read-out: Inhibition
Give your result in % as a bare value.

Example molecules with recorded cytotoxicity at 70.5 h:
Molecule: O=S(=O)(CCSc1nccn1C1CC1)c1ccccc1
cytotoxicity at 70.5 h, %: -5.9

Molecule: O=C(c1cscn1)N1CCCC(n2cncn2)C1 (configuration not stated)
cytotoxicity at 70.5 h, %: -8.94

Req: Entry CCc1c(O)nc2nc(N3CCCC3)nn2c1C : reported cytotoxicity at 70.5 h = ?
Resp: -5.54

Req: Entry COc1cccc(CC(=O)N2CCN(c3cccc(C)c3)C(C)C2)c1 (configuration not stated) : reported cytotoxicity at 70.5 h = ?
Resp: 0.115

Req: Entry Cc1nc(Oc2ccccc2Cl)sc1C(=O)O : reported cytotoxicity at 70.5 h = ?
Resp: -15.5

Req: Entry CC1=Nc2c(c(O)nn2C2CCOCC2)C(c2cccnc2)S1 (configuration not stated) : reported cytotoxicity at 70.5 h = ?
Resp: -3.81

Req: Entry CC(C)CC(=O)N1Cc2ccccc2CC1C(=O)Nc1nncs1 (configuration not stated) : reported cytotoxicity at 70.5 h = ?
Resp: 1.18

Req: Entry OCCN1CCOC2(CCCN(c3cccc(F)c3)C2)C1 (configuration not stated) : reported cytotoxicity at 70.5 h = ?
Resp: -7.62

Req: Entry Cc1ccc(C)c(C(C)NC(=O)N2CCC(n3cncn3)CC2)c1 (configuration not stated) : reported cytotoxicity at 70.5 h = ?
Resp: -3.74

Req: Entry CC(C)C(C)(C#N)NC(=O)Cn1cc(-c2ccccc2)cn1 (configuration not stated) : reported cytotoxicity at 70.5 h = ?
Resp: -5.67

Req: Entry c1ccc(CN2CCN3C[C@H](Oc4cncnc4)C[C@H]3C2)nc1 : reported cytotoxicity at 70.5 h = ?
Resp: -3.2

Req: Entry CCC[C@H]1CN(Cc2ccc(N(C)C)nc2)C[C@@H]1NC(=O)CCOC : reported cytotoxicity at 70.5 h = ?
Resp: -10.3

---

Experiment: Human HepG2 cell viability assay in 384 well format
Type: toxicity, cell-based
Design: dose 125 nL, time 70.5 hour; concentration not given beside the values
Details: HepG2 cells, read-out: Inhibition
Measured metric: cytotoxicity at 70.5 h (%)
Give your result in % as a bare value.

Compound: CC(Cn1cccn1)NC(=O)Nc1nnc(C2CC2)s1 (stereo not drawn)
Measured metric: cytotoxicity at 70.5 h
Result number: -11
//
Compound: CCc1cnc(N)nc1N1CCCC2(CCOCC2)C1
Measured metric: cytotoxicity at 70.5 h
Result number: -3.13

Req: Entry COCCCN1CCC(NC(=O)C(C)C)CC1 : reported cytotoxicity at 70.5 h = ?
Resp: 7.82

Req: Entry CCSc1ncc(CN2CCN(c3ncc(C)c(N)n3)CC2)cn1 : reported cytotoxicity at 70.5 h = ?
Resp: -9.95

Req: Entry Fc1cccc(N2CCCC3(C2)CN(c2cnccn2)CCO3)c1 (stereo not drawn) : reported cytotoxicity at 70.5 h = ?
Resp: -5.22

Req: Entry O=C1CCC2(CCN(CCSc3ccccc3)CC2)CN1CCCO : reported cytotoxicity at 70.5 h = ?
Resp: -1.81

Req: Entry O=C(NC1CCN(c2cccc(OC(F)(F)F)c2)C1=O)C1CC1 (stereo not drawn) : reported cytotoxicity at 70.5 h = ?
Resp: 0.481

Req: Entry COCC1CN(Cc2ccccn2)Cc2nn(C)cc21 (stereo not drawn) : reported cytotoxicity at 70.5 h = ?
Resp: -7.74

Req: Entry Cc1cc(NC(=O)N2CCCC2C(=O)NC2CC2)c2ncccc2c1 (stereo not drawn) : reported cytotoxicity at 70.5 h = ?
Resp: -98

Req: Entry COCC1c2c(cnn2CC2CC2)CCN1Cc1nccs1 (stereo not drawn) : reported cytotoxicity at 70.5 h = ?
Resp: -4.64

---

Measured cytotoxicity at 70.5 h, listed per entry.
Test: Human HepG2 cell viability assay in 384 well format
Type: toxicity, cell-based
Parameters: dose 125 nL, time 70.5 hour; concentration not given beside the values
Conditions: HepG2 cells, read-out: Inhibition
Give your result in % as a bare value.

Example compounds with recorded cytotoxicity at 70.5 h:
Compound: CNC(=O)C1CN(C)CCN(C(=O)CCn2nnc3ccccc32)C1 (centres undefined)
cytotoxicity at 70.5 h / %: 0.266

Compound: C=C(C)CN1CCC(Nc2nc(C)ns2)CC1
cytotoxicity at 70.5 h / %: -0.501

Compound: CCc1nnsc1C(=O)NC(CC(C)C)C(=O)OC (centres undefined)
cytotoxicity at 70.5 h / %: -7.11

Compound: O=C(COC1CCCCC1)Nc1ccn(Cc2ccccn2)n1
cytotoxicity at 70.5 h / %: -5.54

Compound: CCCN(CC(=O)OC)C(=O)c1sc(C)nc1C
cytotoxicity at 70.5 h / %: -15.4

Compound: CCC(=O)Nc1cc(Br)cnc1OCC(F)(F)F
cytotoxicity at 70.5 h / %: -8.98

Compound: CC(=O)N1CC(=O)N(c2cnn(C)c2)CC12CCN(Cc1ccsc1)C2 (centres undefined)
cytotoxicity at 70.5 h / %: 21.7

Compound: CN(CC1CCC1)C(=O)Nc1cccnc1-n1cncn1
cytotoxicity at 70.5 h / %: -12.4

Req: Entry Cc1cc(N)nc(SC2CCCN(Cc3ccccc3)C2=O)n1 (centres undefined) : reported cytotoxicity at 70.5 h = ?
Resp: -9.67

Req: Entry Cc1cccc(CN2C[C@H]3C[C@H](C(=O)NCc4cccnc4)[C@@H](C2)O3)c1 : reported cytotoxicity at 70.5 h = ?
Resp: 25

Req: Entry Cc1nc(CN2Cc3nccn3CC(CN3CCOCC3)C2)cs1 (centres undefined) : reported cytotoxicity at 70.5 h = ?
Resp: -2.85

Req: Entry Cc1nccn1[C@@H]1CC[C@@H](NC(=O)CCCn2cccn2)[C@H]1O : reported cytotoxicity at 70.5 h = ?
Resp: 19.3

Req: Entry CC(C)n1nnc(CC(=O)NCC2(c3ccccc3F)CCOCC2)n1 : reported cytotoxicity at 70.5 h = ?
Resp: -8.63

Req: Entry O=C(CCN1CCOCC1)Nc1cccc(CNCc2ccsc2)c1 : reported cytotoxicity at 70.5 h = ?
Resp: 14.1

Req: Entry CC(O)CNC(=O)c1nc(Cc2c(Cl)cccc2Cl)no1 (centres undefined) : reported cytotoxicity at 70.5 h = ?
Resp: -4.9

Req: Entry O=C(c1ccccc1OCC1CC1)N1CCCC(n2ccnc2)C1 (centres undefined) : reported cytotoxicity at 70.5 h = ?
Resp: -9.12

Req: Entry CC(=O)NCCNc1nc(C2CCCC2)nc2c1cnn2C : reported cytotoxicity at 70.5 h = ?
Resp: -5.79

Req: Entry Cn1cc(CNCCOc2ccc(F)c(F)c2)c(-c2cccnc2)n1 : reported cytotoxicity at 70.5 h = ?
Resp: -5.61

Req: Entry CCOc1ncccc1NC(=O)NC1CCCN(S(C)(=O)=O)C1 (centres undefined) : reported cytotoxicity at 70.5 h = ?
Resp: -0.949
